Where these numbers come from: ChEMBL document CHEMBL1146521

Entries and their MIC values follow.
- System: Bacillus cereus
- testProtocol: Antimicrobial activity against Bacillus cereus isolate after 36 hrs under aerobic condition by microdilution method
- Assay type: functional
Provide only the numeric value, understood in µg/mL.

Consider the reported MIC for these compounds:
[
  {
    "compound": "C=C1C(=O)O[C@H]2C[C@@]3(C)[C@H](O)CC=C(C)[C@@H]3[C@@H](O)[C@H]12",
    "MIC, µg/mL": 25
  },
  {
    "compound": "C=C1C(=O)O[C@H]2/C=C(\\C)[C@@H](O)CC/C(C)=C/[C@@H](O)[C@H]12",
    "MIC, µg/mL": 50
  },
  {
    "compound": "COc1ccc(-c2oc3cc(O)cc(O)c3c(=O)c2O)cc1 [KAEMPFERIDE]",
    "MIC, µg/mL": 25
  },
  {
    "compound": "C=C1C(=O)O[C@H]2C[C@@]3(C)[C@H](C(C)=CC[C@@H]3O)[C@@H](O)[C@H]12",
    "MIC, µg/mL": 12.5
  },
  {
    "compound": "CN[C@@H]1[C@H](O[C@H]2[C@H](O[C@H]3[C@H](O)[C@@H](O)[C@H](N=C(N)N)[C@@H](O)[C@@H]3N=C(N)N)O[C@@H](C)[C@]2(O)C=O)O[C@@H](CO)[C@H](O)[C@H]1O",
    "MIC, µg/mL": 100
  },
  {
    "compound": "O=c1c(O)c(-c2ccc(O)c(O)c2)oc2cc(O)cc(O)c12",
    "MIC, µg/mL": 50
  }
]

MIC for C=C1C(=O)O[C@H]2C[C@@]3(C)[C@H](O)CCC(=C)[C@@H]3[C@@H](O)[C@H]12 is 50

MIC for C=C1C(=O)O[C@H]2CC(=C)[C@@H](O)CC/C(C)=C/[C@@H](O)[C@H]12 is 50
